molecular target: Arginase-2, mitochondrial (Homo sapiens) (UniProt P78540); test: in vitro enzyme assay to detect the production of urea directly proportional to the activity of Arginase II; assay type: functional; parameters: scale not given: in the data most compounds retested in dose-response had high values; conditions: 33.3 µM
Sequence (P78540 whole entry): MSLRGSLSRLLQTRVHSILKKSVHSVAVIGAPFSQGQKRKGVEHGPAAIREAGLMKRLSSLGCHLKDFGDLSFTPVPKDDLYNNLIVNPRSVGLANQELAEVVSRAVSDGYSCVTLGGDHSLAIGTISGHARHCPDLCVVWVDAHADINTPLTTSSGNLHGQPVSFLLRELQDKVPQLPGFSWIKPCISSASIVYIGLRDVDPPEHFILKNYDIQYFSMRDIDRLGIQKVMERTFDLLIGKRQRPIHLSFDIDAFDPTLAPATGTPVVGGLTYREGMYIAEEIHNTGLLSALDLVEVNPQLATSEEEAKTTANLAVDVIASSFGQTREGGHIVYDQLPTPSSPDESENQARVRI
I'd be grateful if you could share measured Percent Effect for these entries.
Answers are plain numbers, in %.

Reference set, count: 10
- COMPOUND: "CCN1CCN(C2CCN(Cc3nc(-c4ccoc4)no3)CC2)C1=O"
  OBSERVED MEASUREMENT: 1.07
- COMPOUND: "CNS(=O)(=O)c1ccc(C(=O)N2CCCC2c2cnn(C)c2)o1 (stereo unspecified)"
  OBSERVED MEASUREMENT: 0.719
- COMPOUND: "Cn1cc(CN2CC[C@H]3C[C@H](c4nc(C5CC5)cs4)O[C@@H]3C2)cn1"
  OBSERVED MEASUREMENT: -9.65
- COMPOUND: "CCc1nnc2n1CCN(Cc1ccc3c(c1)OCCO3)C2"
  OBSERVED MEASUREMENT: 1.29
- COMPOUND: "c1ccc(OC[C@]23COC[C@H]2CN(c2ncccn2)C3)nc1"
  OBSERVED MEASUREMENT: -59.3
- COMPOUND: "Cn1cc(N2CC3(CCN(CC4CCOCC4)CC3)OCC2=O)cn1"
  OBSERVED MEASUREMENT: 2.99
- COMPOUND: "Cc1ccc(N2CC[C@H]3OCC[C@@]3(C(=O)NC(C)C)C2)nn1"
  OBSERVED MEASUREMENT: 16.7
- COMPOUND: "O=C(c1ccncc1)N1CCC(c2nc(O)cc(-c3cccnc3)n2)C1 (stereo unspecified)"
  OBSERVED MEASUREMENT: 26.8
- COMPOUND: "CCN(CC)Cc1cn2c(n1)CN(C(=O)c1cc(C)on1)CC2"
  OBSERVED MEASUREMENT: 9.24
- COMPOUND: "CC(C)CN1CCCn2nc(CNC(=O)CCCc3cn[nH]c3)cc2C1"
  OBSERVED MEASUREMENT: -0.521

Could you now look at the following compound, please?
Which Percent Effect is listed for Cc1nc(CN2CCN(CC(=O)Nc3c(C)cccc3C)CC2)no1 ? 1.9

---

biological target: Proteasome subunit beta (Trypanosoma cruzi) (UniProt O96673); assay: Trypanosoma cruzi proteasome chymotrypsin-like activity (TcProtChymo) assay.; assay type: functional; design: scale not given: in the data most compounds retested in dose-response had high values; details: 9.37 µM
Sequence (O96673 as listed by the source): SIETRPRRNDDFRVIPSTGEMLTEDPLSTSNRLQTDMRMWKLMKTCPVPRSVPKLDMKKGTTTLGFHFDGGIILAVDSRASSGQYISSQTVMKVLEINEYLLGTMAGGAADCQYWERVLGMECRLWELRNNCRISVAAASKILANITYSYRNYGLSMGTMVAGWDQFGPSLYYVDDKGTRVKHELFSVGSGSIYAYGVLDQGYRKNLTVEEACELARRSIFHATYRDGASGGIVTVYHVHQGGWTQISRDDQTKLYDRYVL
MEASURED PROPERTY: Percent Effect (%)
One number for each entry, in %.

These recorded examples may help you get a feel for the data.
- COMPOUND: "CN1CCN(C(=O)Cc2cccc(F)c2)Cc2cccnc21"
  ASSAYED TARGET: "Proteasome subunit beta (Trypanosoma cruzi) (UniProt O96673)"
  OBSERVED MEASUREMENT: -0.499
- COMPOUND: "CC(C)c1nn(C)c(Cl)c1CNC1CCOc2ccccc21 (centres undefined)"
  ASSAYED TARGET: "Proteasome subunit beta (Trypanosoma cruzi) (UniProt O96673)"
  OBSERVED MEASUREMENT: -1.79
- COMPOUND: "CS(=O)(=O)N1CCc2c(cccc2NC(=O)CC(F)(F)F)C1"
  ASSAYED TARGET: "Proteasome subunit beta (Trypanosoma cruzi) (UniProt O96673)"
  OBSERVED MEASUREMENT: 11.8
- COMPOUND: "CCN(CC)CC1CN(CCc2ccccc2)Cc2nccn2C1 (centres undefined)"
  ASSAYED TARGET: "Proteasome subunit beta (Trypanosoma cruzi) (UniProt O96673)"
  OBSERVED MEASUREMENT: 1.28
- COMPOUND: "CN(Cc1ccco1)Cc1ccccc1CNC(=O)c1ccc[nH]1"
  ASSAYED TARGET: "Proteasome subunit beta (Trypanosoma cruzi) (UniProt O96673)"
  OBSERVED MEASUREMENT: 9.31

Hey, quick one: what's Percent Effect for each of these?
1. CC(=O)N1CCOC(c2cc(N3CC(O)C3)nc(C)n2)C1 (centres undefined)
2. Cn1cccc1C(=O)N1CCN(CC2CC2)c2ncccc2C1
3. Cc1nc2cc(C3CCN(Cc4cccc(F)c4F)C3)nn2c(O)c1C (centres undefined)
4. CNS(=O)(=O)c1cccc(CNC(=O)c2c(C)oc(C)c2C)c1
5. CCOCc1ncn2c1CN(C(=O)Nc1cccc(C)c1)CC2

[11.2, 7.18, 2.81, 18.4, 9.21]

Each compound below has a reported value. Please supply its Percent Effect.
1. O=C(NC1CCC1)[C@@H]1CCO[C@@H]2CCN(CCc3ccccc3)C[C@H]21
2. CS(=O)(=O)NCCCN1CCCC1c1ccccc1 (centres undefined)
3. Cc1cc(C[S+]([O-])CC(=O)NCc2cccs2)no1 (centres undefined)
4. CN(CC(=O)N(C)C1CCCCC1)C1CCc2ccccc21 (centres undefined)
5. CN(Cc1nnc2n1CCC2)C(=O)NCCc1ccc2c(c1)OCO2

22.7
3.03
1.01
7.35
10.6

# per-item lookup of Percent Effect; items listed below
1. CC(C)N(C)Cc1cnc2n1CCN(CCc1ccccc1)C2
2. O=C(c1ccc(C2CCCO2)s1)N1CCS(=O)(=O)CC1 (centres undefined)
3. Cc1cnc(N2CCn3cc(CNC(=O)CC4CC4)nc3C2)nc1
4. CN(Cc1nc(N)c2ccccc2n1)C1CCCN(c2cccnn2)C1 (centres undefined)
5. CS(=O)(=O)N[C@@H]1CCO[C@]2(CCN(C(=O)c3cnccn3)C2)C1
6. Cc1nc(C)n(CC2CN(CCc3ccncc3)CCO2)n1 (centres undefined)
7. CCCC(NC(=O)c1ccc(OC)cc1F)c1nnn[nH]1 (centres undefined)

[9.04, 17.1, -6.78, 13.3, 22.7, 10.3, 9.24]

State recorded Percent Effect for all listed compounds.
1. O=C(NC1CC1)[C@H]1C[C@H]2OCC[C@H]2N(CC2CC2)C1
2. Cc1ccccc1Cc1cnc(NC(=O)C2CNC(=O)N2)s1 (centres undefined)

1: 0.513; 2: 13.7
